Origin of values: the supplement of paper PMC10646978

- Tested on: RAW-Dual (murine macrophage reporter line)
- method: IRF reporter (Lucia luciferase) activity fold change vs agonist alone; higher = enhanced IRF activity
- condition-description: modulator concentration 10 µM; agonist: MPLA […]
quantity-name: IRF reporter

compound=Cc1ccn2c(-c3csc(NCc4ccccc4)n3)c(C)nc2c1 assay_value=1.46
compound=N[C@H](Cc1ccccc1)C(=O)O assay_value=1.11
compound=CCN(CC)C(=S)SSC(=S)N(CC)CC assay_value=0.114
compound=O=c1ccc2cc(O)c(O)cc2o1 assay_value=1.2
compound=CC(=O)Oc1ccc2c(c1)c(C(C)=O)c(C)n2C assay_value=1.27
compound=CC(C)c1nc(CN(C)C(=O)N[C@H](C(=O)N[C@@H](Cc2ccccc2)C[C@H](O)[C@H](Cc2ccccc2)NC(=O)OCc2cncs2)C(C)C)cs1 assay_value=0.92
compound=C[C@@H](Oc1cc(-c2cnn(C3CCNCC3)c2)cnc1N)c1c(Cl)ccc(F)c1Cl assay_value=0.128
compound="Br.COc1ccc(C2=NN(c3nc(-c4ccc(OC)c(F)c4)cs3)C(c3ccc(OC)cc3)C2)cc1 (stereo unspecified)" assay_value=1.05
compound=CCN(CC)c1ccc(-c2noc(CN3CCSCC3)n2)cn1 assay_value=1.13
compound=CC(=O)Nc1ccc(C(=O)Nc2ccc(Cl)cn2)cc1 assay_value=1.09
compound=CCN(CC)c1ccc(C=NNC(=O)c2ccncc2)c(O)c1 assay_value=1.35
